viability at 5 h, 10 µM: recorded values
test: Cytotoxicity against mouse J774.A1 cells assessed as cell viability at 10 uM incubated for 5 hrs by Cell Titer-Glo Luminescent Cell Viability assay relative to control; assay type: toxicity, cell-based; conditions: read-out: Activity
quantity-measured: viability at 5 h, 10 µM (%)

CC(C)OC(=O)[C@H](Cc1ccccc1)NP(=O)(COCCn1cc(-c2cncnc2)c2c(N)ncnc21)N[C@@H](Cc1ccccc1)C(=O)OC(C)C | 128
Cc1cn(CCOCP(=O)(N[C@@H](Cc2ccccc2)C(=O)OC(C)C)N[C@@H](Cc2ccccc2)C(=O)OC(C)C)c2ncnc(N)c12 | 112
CC(C)OC(=O)[C@H](Cc1ccccc1)NP(=O)(COCCn1cc(-c2cccc(-c3nn[nH]n3)c2)c2c(N)ncnc21)N[C@@H](Cc1ccccc1)C(=O)OC(C)C | 94

---

assay: Inhibition of Bordetella pertussis Adenylate cyclase toxin in mouse J774.A1 cells preincubated for 5 hrs followed by ACT addition and measured after 30 mins by CatchPointcAMP immunoassay method; assay type: cell-based
pIC50: −log10 of the molar value.
quantity-measured: pIC50

Nc1ncnc2c1c(-c1ccccn1)cn2CCOCP(=O)(O)OP(=O)(O)OP(=O)(O)O | 6.97
COc1ccc(-c2cn(CCOCP(=O)(OCOC(=O)C(C)(C)C)OCOC(=O)C(C)(C)C)c3ncnc(N)c23)cc1 | 4.99
CC(C)OC(=O)[C@H](Cc1ccccc1)NP(=O)(COCCn1cc(-c2cccc(C(=O)O)c2)c2c(N)ncnc21)N[C@@H](Cc1ccccc1)C(=O)OC(C)C | 5.22
CC(C)OC(=O)[C@H](Cc1ccccc1)NP(=O)(COCCn1cc(-c2cccc(S(N)(=O)=O)c2)c2c(N)ncnc21)N[C@@H](Cc1ccccc1)C(=O)OC(C)C | 5.47

---

IC50: recorded values
system: CCRF-CEM; assay: Cytotoxicity against human CCRF-CEM cells by CellTiter-Glo 2.0 assay; type: functional, cell-based
quantity-measured: IC50 (µM)

CC(C)OC(=O)[C@H](Cc1ccccc1)NP(=O)(COCCn1cc(-c2cccc(C#N)c2)c2c(N)ncnc21)N[C@@H](Cc1ccccc1)C(=O)OC(C)C | 3.85
C#Cc1cn(CCOCP(=O)(N[C@@H](Cc2ccccc2)C(=O)OC(C)C)N[C@@H](Cc2ccccc2)C(=O)OC(C)C)c2ncnc(N)c12 | 5.77
CC(C)OC(=O)[C@H](Cc1ccccc1)NP(=O)(COCCn1cc(-c2ccccc2)c2c(N)ncnc21)N[C@@H](Cc1ccccc1)C(=O)OC(C)C | 4.74
C=C(C)c1cn(CCOCP(=O)(N[C@@H](Cc2ccccc2)C(=O)OC(C)C)N[C@@H](Cc2ccccc2)C(=O)OC(C)C)c2ncnc(N)c12 | 5.64
CC(C)OC(=O)[C@H](Cc1ccccc1)NP(=O)(COCCn1cc(C#Cc2ccccc2)c2c(N)ncnc21)N[C@@H](Cc1ccccc1)C(=O)OC(C)C | 4.49
COc1ccccc1-c1cn(CCOCP(=O)(N[C@@H](Cc2ccccc2)C(=O)OC(C)C)N[C@@H](Cc2ccccc2)C(=O)OC(C)C)c2ncnc(N)c12 | 6.2
CC(C)OC(=O)[C@H](Cc1ccccc1)NP(=O)(COCCn1cc(-c2cccc(NS(C)(=O)=O)c2)c2c(N)ncnc21)N[C@@H](Cc1ccccc1)C(=O)OC(C)C | 6.92
CC(C)OC(=O)[C@H](Cc1ccccc1)NP(=O)(COCCn1cc(-c2ccccn2)c2c(N)ncnc21)N[C@@H](Cc1ccccc1)C(=O)OC(C)C | 5.77
